# test system: T1, IL-18 receptors on HEK-Blue IL-18 reporter cells (UniProt Q13478 19-541; O95256 20-599, limits assumed); also: unit not given here
# T1 sequence (looked up) 1: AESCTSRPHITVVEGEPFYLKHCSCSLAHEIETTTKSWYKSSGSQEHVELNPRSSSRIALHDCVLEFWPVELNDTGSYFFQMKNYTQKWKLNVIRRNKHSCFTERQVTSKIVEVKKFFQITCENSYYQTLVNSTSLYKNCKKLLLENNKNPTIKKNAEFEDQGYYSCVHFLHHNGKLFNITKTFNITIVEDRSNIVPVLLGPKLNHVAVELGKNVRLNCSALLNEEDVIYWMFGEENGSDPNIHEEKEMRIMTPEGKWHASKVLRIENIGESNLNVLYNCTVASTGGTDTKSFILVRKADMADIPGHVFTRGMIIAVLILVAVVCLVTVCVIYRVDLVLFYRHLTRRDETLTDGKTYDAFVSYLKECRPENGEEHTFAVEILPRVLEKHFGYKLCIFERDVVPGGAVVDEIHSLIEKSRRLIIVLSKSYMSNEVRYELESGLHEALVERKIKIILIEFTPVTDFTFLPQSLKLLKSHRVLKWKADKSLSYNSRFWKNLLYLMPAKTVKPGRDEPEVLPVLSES
# T1 sequence (looked up) 2: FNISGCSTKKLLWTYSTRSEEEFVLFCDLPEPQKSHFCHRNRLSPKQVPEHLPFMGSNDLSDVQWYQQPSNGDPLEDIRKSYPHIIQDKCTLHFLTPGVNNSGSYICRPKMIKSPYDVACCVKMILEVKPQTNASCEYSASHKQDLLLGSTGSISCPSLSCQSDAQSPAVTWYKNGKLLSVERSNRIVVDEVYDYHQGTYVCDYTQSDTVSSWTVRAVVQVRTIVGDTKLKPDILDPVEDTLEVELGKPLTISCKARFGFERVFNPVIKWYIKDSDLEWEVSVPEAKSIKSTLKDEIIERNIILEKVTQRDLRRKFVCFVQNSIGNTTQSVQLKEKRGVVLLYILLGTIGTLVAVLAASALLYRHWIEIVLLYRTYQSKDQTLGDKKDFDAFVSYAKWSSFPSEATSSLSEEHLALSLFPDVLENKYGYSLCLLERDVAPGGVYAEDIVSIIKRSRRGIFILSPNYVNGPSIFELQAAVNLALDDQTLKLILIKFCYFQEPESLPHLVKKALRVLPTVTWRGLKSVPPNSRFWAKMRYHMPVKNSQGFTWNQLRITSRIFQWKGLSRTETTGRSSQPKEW
# assay details: cell-based or functional assay
Each entry below lists one item and its recorded HEK-Blue activity, No BP, DF-10000 value.

[
  {
    "binder": "IL-18 variant K53L, S55G (ligand) YFGKLESKLSVIRNLNDQVLFIDQGNRPLFEDMTDSDMRDNAPRTIFIISMYLDGQPRGMAVTISVKSEKISTLSSENKIISFKEMNPPDNIKDTKSDIIFFQRSVPGHDNKMQFESSSYEGYFLASEKERDLFKLILKKEDELGDRSIMFTVQNED",
    "HEK-Blue activity, No BP, DF-10000": 0.12
  },
  {
    "binder": "IL-18 variant K53H, S55M, Q56H (ligand) YFGKLESKLSVIRNLNDQVLFIDQGNRPLFEDMTDSDMRDNAPRTIFIISMYHDMHPRGMAVTISVKSEKISTLSSENKIISFKEMNPPDNIKDTKSDIIFFQRSVPGHDNKMQFESSSYEGYFLASEKERDLFKLILKKEDELGDRSIMFTVQNED",
    "HEK-Blue activity, No BP, DF-10000": 0.14
  },
  {
    "binder": "IL-18 variant S36W, D37E, D40F, N41I, K53D, S55N (ligand) YFGKLESKLSVIRNLNDQVLFIDQGNRPLFEDMTDWEMRFIAPRTIFIISMYDDNQPRGMAVTISVKSEKISTLSSENKIISFKEMNPPDNIKDTKSDIIFFQRSVPGHDNKMQFESSSYEGYFLASEKERDLFKLILKKEDELGDRSIMFTVQNED",
    "HEK-Blue activity, No BP, DF-10000": 0.13
  },
  {
    "binder": "IL-18 variant K53Y, S55V (ligand) YFGKLESKLSVIRNLNDQVLFIDQGNRPLFEDMTDSDMRDNAPRTIFIISMYYDVQPRGMAVTISVKSEKISTLSSENKIISFKEMNPPDNIKDTKSDIIFFQRSVPGHDNKMQFESSSYEGYFLASEKERDLFKLILKKEDELGDRSIMFTVQNED",
    "HEK-Blue activity, No BP, DF-10000": 0.16
  },
  {
    "binder": "IL-18 variant L9V, K53H, S55M (ligand) YFGKLESKVSVIRNLNDQVLFIDQGNRPLFEDMTDSDMRDNAPRTIFIISMYHDMQPRGMAVTISVKSEKISTLSSENKIISFKEMNPPDNIKDTKSDIIFFQRSVPGHDNKMQFESSSYEGYFLASEKERDLFKLILKKEDELGDRSIMFTVQNED",
    "HEK-Blue activity, No BP, DF-10000": 0.15
  },
  {
    "binder": "IL-18 variant K53G, S55P, R104K, H109Y (ligand) YFGKLESKLSVIRNLNDQVLFIDQGNRPLFEDMTDSDMRDNAPRTIFIISMYGDPQPRGMAVTISVKSEKISTLSSENKIISFKEMNPPDNIKDTKSDIIFFQKSVPGYDNKMQFESSSYEGYFLASEKERDLFKLILKKEDELGDRSIMFTVQNED",
    "HEK-Blue activity, No BP, DF-10000": 0.21
  },
  {
    "binder": "IL-18 variant T34L, S36V, D40A, N41S, K53G, S55W (ligand) YFGKLESKLSVIRNLNDQVLFIDQGNRPLFEDMLDVDMRASAPRTIFIISMYGDWQPRGMAVTISVKSEKISTLSSENKIISFKEMNPPDNIKDTKSDIIFFQRSVPGHDNKMQFESSSYEGYFLASEKERDLFKLILKKEDELGDRSIMFTVQNED",
    "HEK-Blue activity, No BP, DF-10000": 0.22
  }
]
